# Tested on: SEM cells
# test protocol: cell viability relative to DMSO control; higher = less cytotoxic
# particulars: RPMI 5 mM glucose + 10% FBS; 48 h; 0.000781 µM
Each entry below lists one item and its recorded cell viability value.
value type: cell viability

- COc1ccc(CCN2CCN(CCCc3ccccc3)CC2)cc1OC: 108%
- COC1=CC=C2Nc3cc(Cl)ccc3C(N=C3C=C(CN4CCCC4)C(=O)C(CN4CCCC4)=C3)=C2N1: 107%
- COc1cc2nccc(Oc3ccc(NC(=O)C4(C(=O)Nc5ccc(F)cc5)CC4)cc3)c2cc1OC: 92.2%
- Cc1c[nH]c(/C=C2\C(=O)Nc3ccccc32)c1CCC(=O)O: 61.2%
- COc1cc(N2CCC(C(N)=O)CC2)ccc1Nc1nc(N)c(Cl)c(Nc2ccccc2[S+](=O)([O-])C(C)C)n1: 103%

* * *

# Tested on: NOMO1
# test protocol: cell viability relative to DMSO control; higher = less cytotoxic
# particulars: HPLM + 10% dialyzed FBS; 48 h; 0.569 µM
value type: cell viability (%)

• Cc1ccc(NC(=O)C2(c3ccc4c(c3)OC(F)(F)O4)CC2)nc1-c1cccc(C(=O)O)c1 = 19
• NC1CCC(N[C@@H]2C[C@H]2c2ccccc2)CC1 (stereo partly specified) = 117
• Clc1ccc(C2(c3ccc(-c4cn[nH]c4)cc3)CCNCC2)cc1 = 96.6
• C[C@H]1CN(C[C@@H](C)O1)CC(=O)NC2=CC=C3SC4=C(CC3=C2)C=CC=C4\C5=C\C(=O)\C=C(/O5)N6CCOCC6 = 118
• Cc1nc(Nc2ncc(C(=O)Nc3c(C)cccc3Cl)s2)cc(N2CCN(CCO)CC2)n1 = 113
• CO[C@H]1C[C@@H]2CC[C@@H](C)[C@@](O)(O2)C(=O)C(=O)N2CCCC[C@H]2C(=O)O[C@H]([C@H](C)C[C@@H]2CC[C@@H](OP(C)(C)=O)[C@H](OC)C2)CC(=O)[C@H](C)/C=C(\C)[C@@H](O)[C@@H](OC)C(=O)[C@H](C)C[C@H](C)/C=C/C=C/C=C/1C = 102
• COc1cc2nccc(Oc3ccc(NC(=O)Nc4ccc(F)cc4F)c(F)c3)c2cc1OC = 90.3
• C[C@H](NC(=O)C(=O)Nc1ccccc1C(C)(C)C)C(=O)N[C@@H](CC(=O)O)C(=O)COc1c(F)c(F)cc(F)c1F = 123
• O=C1Nc2ccccc2/C1=C1\Nc2ccccc2C1=O = 110
• O=C(NC1CCOCC1)c1ccc(-c2cc(-c3c[nH]nc3-c3ccccn3)ccn2)cc1 = 114
• COc1cc2ncnc(-n3nc(-c4ccccn4)nc3N)c2cc1OC = 95.2
• COc1cc2c(N3CCN(C(=O)Nc4ccc(OC(C)C)cc4)CC3)ncnc2cc1OCCCN1CCCCC1 = 112
• Cl.c1cnc2cc3c(cc2n1)C1CNCC3C1 = 135
• CN1C(=O)\C(=C/C(=C1/NC2=C(F)C=C(I)C=C2)C(=O)NOCCO)C = 40.2
• Fc1cc(-c2cccc3ncc(-c4cnn(C5CCNCC5)c4)nc23)cc(F)c1CN1CCOCC1 = 135
• CN(C)CCOC(c1ccccc1)c1ccccc1 = 112
• CN(C)Cc1ccc(-c2nc3cccc4c3n2CCNC4=O)cc1 = 109
• Cc1[nH]c(/C=C2\C(=O)Nc3ccc([S+](=O)([O-])N(C)c4cccc(Cl)c4)cc32)c(C)c1C(=O)N1CCN(C)CC1 = 115
• COC(=O)N1CCN(Cc2cccc(NC(=O)Nc3ccc(C)nc3)c2F)CC1 = 100
• N[C@@H](C(=O)N[C@H]1[C@H]2SC\C(=C(/N2C1=O)C(O)=O)Cl)C3=CC=CC=C3 = 126
• Fc1ccc(C(c2ccc(F)cc2)N2CCN(C/C=C/c3ccccc3)CC2)cc1 = 104
• Clc1cccc(-c2nnnn2Cc2cccnc2)c1Cl = 79
• CC(C)(C)OC(=O)CN(Cc1ccc(Cl)cc1)Cc1ccc([N+](=O)[O-])s1 = 91.1
• CCOC(=O)Nc1ccc(NCc2ccc(F)cc2)cc1N = 121
• COc1ccc(/C=C\c2cc(OC)c(OC)c(OC)c2)cc1O = 41.7
• CO/N=C(/C(=O)N[C@@H]1C(=O)N2C(C(=O)O)=C(Cn3ccc(=N)n3CCO)CS[C@H]12)c1csc(N)n1 = 120

Values compiled from the supplement of paper PMC11451515.
